Test system: Zymoseptoria tritici (the causal agent of wheat leaf blotch)
Experiment: Test B: preventive spray on wheat seedlings, wheat leaf blotch, visual disease rating
Assay type: in vivo
Conditions: test suspension 250 ppm; wheat seedlings
Marks after values point to notes of the source that are not given here.
Listed below: Test B disease control rating values for each entry.

{"Compound": "CCCc1nn(Cc2ccc(-c3noc(C(F)(F)F)n3)cc2)c(=O)n1C", "Test B disease control rating": "87%"}
{"Compound": "O=C(NCC1CC1(F)F)c1coc(Cc2ccc(-c3noc(C(F)(F)F)n3)cc2)n1 (stereo not shown)", "Test B disease control rating": "94* %"}
{"Compound": "O=C(NCCn1cccn1)c1coc(Cc2ccc(-c3noc(C(F)(F)F)n3)cc2)c1", "Test B disease control rating": "91* %"}
{"Compound": "COCCNC(=O)c1ccc(Cc2ccc(-c3noc(C(F)(F)F)n3)cc2)cc1", "Test B disease control rating": "94* %"}
{"Compound": "FC(F)(F)c1nc(-c2ccc(Cn3ccc(-c4ccccc4Cl)n3)cc2)no1", "Test B disease control rating": "57%"}
{"Compound": "O=C(c1coc(Cc2ccc(-c3noc(C(F)(F)F)n3)cc2)n1)N1CCOCC1", "Test B disease control rating": "95* %"}
{"Compound": "COCCNC(=O)c1cnn(COc2ccc(-c3noc(C(F)(F)F)n3)cc2)c1", "Test B disease control rating": "82* %"}
{"Compound": "N#CCNC(=O)c1coc(Cc2ccc(-c3noc(C(F)(F)F)n3)cc2)c1", "Test B disease control rating": "50* %"}
{"Compound": "CC(C)COC(=O)c1coc(Cc2ccc(-c3noc(C(F)(F)F)n3)cc2)n1", "Test B disease control rating": "73* %"}
{"Compound": "O=C(NC1CSC1)c1coc(Cc2ccc(-c3noc(C(F)(F)F)n3)cc2)n1", "Test B disease control rating": "98* %"}
{"Compound": "O=C(NCC1CC1)c1csc(Cc2ccc(-c3noc(C(F)(F)F)n3)cc2)c1", "Test B disease control rating": "53* %"}
{"Compound": "O=[N+]([O-])c1ccc2c(cnn2Cc2ccc(-c3noc(C(F)(F)F)n3)cc2)c1", "Test B disease control rating": "35%"}
{"Compound": "FC(F)(F)c1nc(-c2ccc(Cn3cnc4ccccc43)cc2)no1", "Test B disease control rating": "96%"}
{"Compound": "CCOC(=O)C1=NOC(Cc2ccc(-c3noc(C(F)(F)F)n3)cc2)C1 (stereo not shown)", "Test B disease control rating": "94* %"}
{"Compound": "O=C(c1coc(Cc2ccc(-c3noc(C(F)(F)F)n3)cc2)n1)N1CCC1", "Test B disease control rating": "88* %"}
{"Compound": "COCCNC(=O)c1coc(Cc2ccc(-c3noc(C(F)(F)F)n3)cc2)c1", "Test B disease control rating": "96* %"}
{"Compound": "O=C(NCC(F)(F)F)c1ccc(Cc2ccc(-c3noc(C(F)(F)F)n3)cc2)cc1", "Test B disease control rating": "34* %"}
{"Compound": "CCOC(=O)c1cnn(Cn2cc(-c3noc(C(F)(F)F)n3)cn2)c1", "Test B disease control rating": "0* %"}
{"Compound": "CCOC(=O)c1cnn(Cc2csc(-c3noc(C(F)(F)F)n3)c2)c1", "Test B disease control rating": "28* %"}
{"Compound": "COCCNC(=O)c1csc(Cc2ccc(-c3noc(C(F)(F)F)n3)cc2)c1", "Test B disease control rating": "98* %"}
{"Compound": "N#CC1(NC(=O)c2coc(Cc3ccc(-c4noc(C(F)(F)F)n4)cc3)n2)CC1", "Test B disease control rating": "95* %"}
{"Compound": "COCCNC(=O)c1cccc(Cc2ccc(-c3noc(C(F)(F)F)n3)cc2)c1", "Test B disease control rating": "91* %"}
{"Compound": "COC(=O)c1cc(COc2ccc(-c3noc(C(F)(F)F)n3)cc2)on1", "Test B disease control rating": "0* %"}
{"Compound": "NC(=O)c1coc(Cc2ccc(-c3noc(C(F)(F)F)n3)cc2)n1", "Test B disease control rating": "70* %"}
{"Compound": "Cn1c(C2CC2)nn(Cc2ccc(-c3noc(C(F)(F)F)n3)cc2)c1=O", "Test B disease control rating": "83%"}
{"Compound": "C#CCNC(=O)C1=NOC(Cc2ccc(-c3noc(C(F)(F)F)n3)cc2)C1 (stereo not shown)", "Test B disease control rating": "92%"}
{"Compound": "Cn1c(C(F)(F)F)nn(CCCc2ccc(-c3noc(C(F)(F)F)n3)cc2)c1=O", "Test B disease control rating": "4%"}
{"Compound": "Cc1cc(C)n(Cc2ccc(-c3noc(C(F)(F)F)n3)cc2)n1", "Test B disease control rating": "0%"}
{"Compound": "FC(F)(F)c1nc(-c2ccc(OCc3cn4cccnc4n3)cc2)no1", "Test B disease control rating": "33* %"}
{"Compound": "FC(F)(F)c1nc(-c2ccc(Cn3ncc4ccccc43)cc2)no1", "Test B disease control rating": "71%"}
{"Compound": "O=C(NCC(F)(F)F)c1cnn(COc2ccc(-c3noc(C(F)(F)F)n3)cc2)c1", "Test B disease control rating": "79* %"}
{"Compound": "CCOC(=O)c1cnn(Cn2ccc(-c3noc(C(F)(F)F)n3)cc2=O)c1", "Test B disease control rating": "87* %"}
{"Compound": "CON=Cc1cnn(Cc2ccc(-c3noc(C(F)(F)F)n3)cc2)c1", "Test B disease control rating": "86* %"}
{"Compound": "CC(C)(C#N)NC(=O)c1coc(Cc2ccc(-c3noc(C(F)(F)F)n3)cc2)n1", "Test B disease control rating": "99* %"}

====

Tested on: Phakopsora pachyrhizi (the causal agent of Asian soybean rust)
Assay: Test A: preventive spray on soybean seedlings, Asian soybean rust, visual disease rating
Type: in vivo
Conditions: test suspension 10 ppm; soybean seedlings; 100 = 100% disease control, 0 = no control
From the text: General protocol for preparing test suspensions for Tests A-D: the test compounds were first dissolved in acetone in an amount equal to 3% of the final volume and then suspended at the desired concentration (in ppm) in acetone and purified water (50/50 mix by volume) containing 250 ppm of the surfactant PEG400 (polyhydric alcohol esters). The resulting test suspensions were then used in Tests A-D. The test suspension was sprayed to the point of run-off on soybean seedlings. […]
Recorded endpoint: Test A disease control rating

{"Molecule": "COC(=O)c1ccc2nn(Cc3ccc(-c4noc(C(F)(F)F)n4)cc3)nc2c1 [compound 23]", "Recorded endpoint": "Test A disease control rating", "Endpoint result": "100%"}
{"Molecule": "CC(COC(=O)c1cnn(Cc2ccc(-c3noc(C(F)(F)F)n3)cc2)c1)=NOC(C)(C)C [compound 220]", "Recorded endpoint": "Test A disease control rating", "Endpoint result": "100%"}
{"Molecule": "Cc1nc(COc2ccc(-c3noc(C(F)(F)F)n3)cc2)cs1 [compound 298]", "Recorded endpoint": "Test A disease control rating", "Endpoint result": "50%"}
{"Molecule": "O=C(NCC1CC1(F)F)c1coc(Cc2ccc(-c3noc(C(F)(F)F)n3)cc2)n1 (stereo not shown) [compound 226]", "Recorded endpoint": "Test A disease control rating", "Endpoint result": "100%"}
